- measuredOn: FAK (Homo sapiens)
- Construct: endogenous in cells; host or cells: U87MG glioblastoma cells (ATCC HTB-14)
- assayText: Cell-based capture ELISA for inhibition of FAK autophosphorylation [pY397] in U87MG cells
- conditionsUsed: 50% (v/v) human plasma, mean IC50, read-out: FAK Activity Mechanistic (U87MG) HP
Please respond with reported IC50 for every item in the list.

Form field, IC50 with FAK (Homo sapiens), item CCOP1(=O)Cc2ccc(c(OC)c2)Nc2ncc(C(F)(F)F)c(n2)Nc2ccc(nc2C(=O)NC)-c2cnn(c2C)CCCO1 (single isomer, unassigned) [Example 35B] : < 400 nM

Fill in: FAK (Homo sapiens) IC50 for CNC(=O)c1nc2ccc1Nc1nc(ncc1C(F)(F)F)Nc1ccc(cc1OC)CP(=O)(O)OCCCn1cc-2cn1 [Example 65] = > 4000 nM

So the reported IC50 for CCOP1(=O)Cc2ccc(c(OC)c2)Nc2ncc(C(F)(F)F)c(n2)Nc2ccc(nc2C(=O)NC)-c2cnn(c2)CCCCO1 (racemic) [Example 15] , on FAK (Homo sapiens), turned out to be < 400 nM

* * *

- measuredOn: FAK (Homo sapiens)
- Construct: endogenous in cells; host or cells: U87MG glioblastoma cells (ATCC HTB-14)
- assayText: Cell-based capture ELISA for inhibition of FAK autophosphorylation [pY397] in U87MG cells
- conditionsUsed: 50% (v/v) human plasma, mean IC50, read-out: FAK Activity Mechanistic (U87MG) HP
experimentalReadout: IC50

CCOP1(=O)Cc2ccc(c(Cl)c2)Nc2ncc(C(F)(F)F)c(n2)Nc2ccc(nc2C(=O)NC)-c2cnn(c2)CC2(COC2)CO1 (racemic) [Example 58] has a reported IC50 of < 400 nM

The molecule CCOP1(=O)Cc2ccc(cc2)Nc2ncc(C(F)(F)F)c(n2)Nc2ccc(cc2C(=O)NC)-c2cnn(c2)CCCO1 (racemic) [Example 8] showed IC50 equal to < 400 nM

Entry CCOP1(=O)Cc2ccc(c(OC)c2)Nc2ncc(C(F)(F)F)c(n2)Nc2ccc(cc2C(=O)N(C)C)-c2cnn(c2)CCCO1 (racemic) [Example 12] , IC50 reported as 400 to 4000 nM

Value of IC50 reported for the molecule CCOP1(=O)Cc2cc(OC)c(cc2Cl)Nc2ncc(C(F)(F)F)c(n2)Nc2ccc(nc2C(=O)NC)-c2cnn(c2)CCCO1 (single isomer, unassigned) [Example 56A] is > 4000 nM

Entry CCOP1(=O)Cc2ccc(c(OC)c2)Nc2ncc(C(F)(F)F)c(n2)Nc2ccc(c3c2C(=O)N(C)C3)-c2cnn(c2)C[C@H](O)CO1 (mixture of isomers) [Example 5] — recorded IC50 = < 400 nM

The value of IC50 measured for the molecule CCOP1(=O)Cc2ccc(c(OC)c2)Nc2ncc(C(F)(F)F)c(n2)Nc2ccc(cc2C(=O)NC)-c2cnn(c2)CCCCO1 (racemic) [Example 14] turned out to be < 400 nM

* * *

Record form. Attribute: pIC50. Fill in for each entry.
- measuredOn: FAK (Homo sapiens, UniProt Q05397)
- Construct: endogenous in cells; host or cells: U87MG glioblastoma cells (ATCC HTB-14)
- Sequence (Q05397 whole entry): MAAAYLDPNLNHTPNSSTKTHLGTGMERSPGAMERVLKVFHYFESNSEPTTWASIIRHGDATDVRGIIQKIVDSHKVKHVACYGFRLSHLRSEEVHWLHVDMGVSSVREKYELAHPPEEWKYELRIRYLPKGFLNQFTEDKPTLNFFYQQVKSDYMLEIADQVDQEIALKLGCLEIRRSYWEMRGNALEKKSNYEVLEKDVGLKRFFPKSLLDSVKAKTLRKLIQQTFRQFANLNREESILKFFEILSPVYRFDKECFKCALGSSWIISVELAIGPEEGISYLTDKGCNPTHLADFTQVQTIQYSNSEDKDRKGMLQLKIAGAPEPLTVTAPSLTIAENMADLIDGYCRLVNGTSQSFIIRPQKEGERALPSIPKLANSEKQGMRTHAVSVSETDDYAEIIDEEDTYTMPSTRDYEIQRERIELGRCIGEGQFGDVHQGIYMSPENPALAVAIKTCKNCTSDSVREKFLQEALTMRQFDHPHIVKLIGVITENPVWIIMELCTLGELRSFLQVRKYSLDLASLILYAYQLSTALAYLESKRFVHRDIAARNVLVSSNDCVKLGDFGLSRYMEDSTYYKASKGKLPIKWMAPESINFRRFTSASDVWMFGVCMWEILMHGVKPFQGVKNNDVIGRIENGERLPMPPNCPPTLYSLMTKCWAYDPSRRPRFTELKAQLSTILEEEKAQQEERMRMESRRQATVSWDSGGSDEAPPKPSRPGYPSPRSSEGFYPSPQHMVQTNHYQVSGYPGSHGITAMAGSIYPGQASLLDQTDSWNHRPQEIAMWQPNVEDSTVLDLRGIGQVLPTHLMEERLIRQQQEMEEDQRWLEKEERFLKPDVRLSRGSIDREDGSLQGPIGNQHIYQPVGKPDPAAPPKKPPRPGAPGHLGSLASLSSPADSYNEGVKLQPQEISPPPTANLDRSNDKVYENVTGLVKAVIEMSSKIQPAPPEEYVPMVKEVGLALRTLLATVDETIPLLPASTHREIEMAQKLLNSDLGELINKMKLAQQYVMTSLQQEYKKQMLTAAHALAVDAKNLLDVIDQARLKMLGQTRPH
- assayText: Cell-based capture ELISA for inhibition of FAK autophosphorylation [pY397] in U87MG cells
- conditionsUsed: 50% (v/v) mouse plasma, mean IC50, read-out: FAK Activity Mechanistic (U87MG) MP
pIC50: −log10 of the molar value.

Recorded result, CCOP1(=O)Cc2ccc(c(OC)c2)Nc2ncc(C(F)(F)F)c(n2)Nc2ccc(nc2C(=O)NOC)-c2cnn(c2)CCCO1 (racemic) [Example 46] , pIC50: 5.40 to 6.40

So, CNC(=O)c1nc2ccc1Nc1nc(ncc1C(F)(F)F)Nc1ccc(cc1OC)CP(=O)(C(C)C)OCCCn1cc-2cn1 (single isomer, unassigned) [Example 68B] ? Its pIC50 was > 6.40

CCOP1(=O)Cc2ccc(c(OC)c2)Nc2ncc(C(F)(F)F)c(n2)Nc2ccc(nc2C(=O)NC)-c2cn(nc2OC)CCCO1 (racemic) [Example 48] yielded pIC50 of 5.40 to 6.40

GET /value?item= CCOP1(=O)Cc2ccc(c(OC)c2)Nc2ncc(C(F)(F)F)c(n2)Nc2ccc(nc2C(=O)NC)-c2cc(C(=O)OC)n(c2)CCCO1 (racemic) [Example 38] &field=pIC50 returns 5.40 to 6.40

CCNC(=O)c1cc2ccc1Nc1nc(ncc1C(F)(F)F)Nc1ccc(cc1OC)CP(=O)(OCC)OCCCn1cc-2cn1 (racemic) [Example 9] yielded pIC50 of 5.40 to 6.40
